- Test system: SF-539 CNS
- assay.protocol: NCI tumour cell line growth inhibition, 48 h; in the data active = GI50 below about 0.43 µM; inactive = the rest
Labels: 1 (active), -1 (inactive)

[[record]]
compound = "COc1cc2nc(-c3ccc(C(F)(F)F)cc3)cc(OCCCN3CCC(O)CC3)c2cc1OC"
assigned_class = -1

[[record]]
compound = "COc1cc(/C=C/c2cc(/C=C/c3ccc(O)c(OC)c3)n(C(=O)Nc3ccc(F)cc3)n2)ccc1O"
assigned_class = -1

[[record]]
compound = "COc1cc2nc(C)nc(N[C@H](C)c3cc(N)cc(C(F)(F)F)c3)c2cc1O[C@H]1CCOC1"
assigned_class = -1

[[record]]
compound = "O=c1n(CC2CO2)c(=O)n(CC2CO2)n1CC1CO1 (stereo unspecified)"
assigned_class = -1

[[record]]
compound = "COc1ccc2c(c1)C(=O)/C(=C/c1ccc(OCC(=O)Nc3nccs3)cc1)O2"
assigned_class = 1

[[record]]
compound = "CCc1ccc2c(c1)C(=O)c1c-2n(CCCBr)c(=O)c2cc([N+](=O)[O-])ccc12"
assigned_class = -1

[[record]]
compound = "Fc1ccc(Nc2ncnc3ccc(-c4cnc5[nH]ccc5c4)cc23)cc1Cl"
assigned_class = -1

[[record]]
compound = "O=C(CN1CCN(c2cc3c(cc2F)c(=O)c(C(=O)N/N=C/c2ccccc2O)cn3C2CC2)CC1)N/N=C\\c1ccccc1O"
assigned_class = -1

[[record]]
compound = "CC(=O)[O][Hg][c]1c(N)c(C)cc(C)c1F"
assigned_class = -1

[[record]]
compound = "O=C1NNC(=O)c2ccccc2SSc2ccccc2C(=O)NNC(=O)c2ccccc2SSc2ccccc21"
assigned_class = -1

[[record]]
compound = "CC1=C(C(=O)Nc2ccc(F)c(Cl)c2)C(c2ccc(Cl)cc2)NC(=O)N1 (stereo unspecified)"
assigned_class = -1


====

- System: HL-60(TB) leukemia
- assay.protocol: NCI tumour cell line growth inhibition, 48 h; in the data active means GI50 below about 0.43 µM; inactive means the rest
Possible outcomes: active, inactive

[[record]]
compound = "CCOc1ccccc1-n1c(CN2CCN(C(=O)COc3ccc(CNCCCCCCN4C5CCCC4CC(OC(=O)Nc4cc(C)ccc4OC)C5)cc3)CC2)nc2ccccc2c1=O (stereo not given)"
assigned_class = "inactive"

[[record]]
compound = "CN(C)CCCNC1=C(Cl)C(=O)c2ccccc2C1=O"
assigned_class = "inactive"

[[record]]
compound = "CC(C)c1ccc(C(C)C(=O)N(CC2=C(C(C)c3ccccn3)c3ccccc3C2)C(C)C)cc1 (stereo not given)"
assigned_class = "inactive"

[[record]]
compound = "Fc1ccc(Nc2ncnc3ccc(-c4cnc5[nH]ccc5c4)cc23)cc1Cl"
assigned_class = "inactive"

[[record]]
compound = "COc1cc2nc(C)nc(N[C@H](C)c3cc(N)cc(C(F)(F)F)c3)c2cc1O[C@H]1CCOC1"
assigned_class = "inactive"

[[record]]
compound = "CSc1ccccc1C#C/C=C\\C#Cc1ccccc1N1CCCC1=O"
assigned_class = "inactive"

[[record]]
compound = "COc1ccc(-c2cc(-c3ccc(Nc4nc(Nc5ccccc5)nc(Nc5ccc(Cl)cc5)n4)cc3)nc(N)c2C#N)cc1"
assigned_class = "inactive"

[[record]]
compound = "NC(CSC(c1ccccc1)(c1ccccc1)c1ccc2c(c1)OCO2)C(=O)O (stereo not given)"
assigned_class = "active"

[[record]]
compound = "COc1ccc2c(c1)C(=O)/C(=C/c1ccc(OCC(=O)Nc3nccs3)cc1)O2"
assigned_class = "active"

[[record]]
compound = "Nc1cc2nc3ccccc3sc-2cc1=O"
assigned_class = "inactive"

[[record]]
compound = "Cc1cc(=O)n2[nH]c(-c3ccc(C(C)(C)C)cc3)cc2n1"
assigned_class = "inactive"

[[record]]
compound = "CCCCCCCC(=O)SCC/C=C/[C@@H]1CC(=O)NCc2cccc(n2)C2=N[C@@](C)(CS2)C(=O)N[C@@H](C(C)C)C(=O)N1"
assigned_class = "inactive"

[[record]]
compound = "Cc1cc2nc(C(Cl)Cl)nc(-c3ccc(Cl)cc3)n2n1"
assigned_class = "inactive"

[[record]]
compound = "Clc1cccc(Cc2cn3cc(-c4ccccc4)nc3s2)c1Cl"
assigned_class = "inactive"

[[record]]
compound = "COc1c2ccoc2c(/C=C/C=O)c2oc(-c3ccccc3)cc(=O)c12"
assigned_class = "inactive"

